Data provenance is patent US20120264685A1.

Exercise: state measured cAMP release, % activity with respect to control, at 1 nM for each of the binders provided.
Biological target: human GLP-1 receptor (human, UniProt P43220 24-463)
Test: cell-based or functional assay
Where no end group is shown, it is not given here. [ ]: non-standard residue; d: D form. Bip(2'-Et-4'-OMe) = CCc1cc(OC)ccc1-c1ccc(C[C@H](N)C(=O)O)cc1; αMePhe(2,6-F2) = C[C@](N)(Cc1c(F)cccc1F)C(=O)O; αMePhe(2-F) = C[C@](N)(Cc1ccccc1F)C(=O)O; αMeBip(OMe) = alpha-methylated Bip(OMe); hhPhe = N[C@@H](CCCc1ccccc1)C(=O)O; αMeD = C[C@](N)(CC(=O)O)C(=O)O; αMeP = C[C@@]1(C(=O)O)CCCN1; αMeAPPA = not defined here; Ac5c = NC1(C(=O)O)CCCC1; Aib = CC(C)(N)C(=O)O

-- ask Field request: cAMP release, % activity with respect to control, at 1 nM | item: VH[Aib]QGTFTS[αMeD][αMeBip(OMe)][hhPhe]-NH2 [Seq. ID. No. 59]
-- reply 39 % of control

-- ask Field request: cAMP release, % activity with respect to control, at 1 nM | item: VH[Aib]EGT[αMePhe(2,6-F2)]TS[αMeD][αMeBip(OMe)][hhPhe] (not fully specified (C-terminus)) [Seq. ID. No. 79]
-- reply 69 % of control

-- ask Field request: cAMP release, % activity with respect to control, at 1 nM | item: VVH[αMeP]EGT[αMePhe(2,6-F2)]TSD[αMeBip(OMe)][hhPhe]-NH2 [Seq. ID. No. 228]
-- reply 39 % of control

-- ask Field request: cAMP release, % activity with respect to control, at 1 nM | item: VH[Ac5c]QGTFTSD[αMeBip(OMe)][hhPhe] (not fully specified (C-terminus)) [Seq. ID. No. 9]
-- reply 99 % of control

-- ask Field request: cAMP release, % activity with respect to control, at 1 nM | item: VHSQGT[αMePhe(2-F)]TSD[Bip(2'-Et-4'-OMe)][αMeAPPA] (not fully specified (C-terminus); printed as VHSQGT-(αMe-2FPhe)-TSD-Bip(OMe)-(αMe-APPA); reading uncertain) [Seq. ID. No. 91]
-- reply 93 % of control
